Record form. Attribute: Activity. Fill in for each entry.
system: Fusobacterium nucleatum; test: Inhibition of Fusobacterium nucleatum AI-2-mediated biofilm formation of Tannerella forsythia ATCC 43037 assessed as biofilm formation at 2 uM incubated for 48 hrs under anaerobic condition by crystal violet staining-based assay (reference value: 100%); parameters: scale not given: the % may be the effect or the level left
Return type: number; implicit unit %.

## Task Specify reported Activity for the molecule shown: O=C1OC(=C(Br)Br)C2CCCC12 (centres undefined)
## Result 57.8

## Task Specify reported Activity for the molecule shown: O=C1C=C(Br)/C(=C/Br)O1
## Result 47.4

## Task Specify reported Activity for the molecule shown: Cc1cccc2c1C(=O)OC2=C(Br)Br
## Result 53.5

## Task Specify reported Activity for the molecule shown: Cc1ccc2c(c1)C(=C(Br)Br)OC2=O
## Result 33.5

Value source: ChEMBL document CHEMBL4138116
